- measured on: UniProt:O15554
- method description: KCa3.1 Assay (FLIPR thallium influx)
- condition description: HEK293 cells over-expressing human KCa3.1; Tl+ influx, FLIPR dye; 15 min compound treatment
Each entry belongs to exactly one class, chosen by where its IC50 falls: zone 1 (below 0.1 µM), zone 2 (0.1 µM to below 0.3 µM), zone 3 (0.3 µM or more)

- Cc1nc2c(s1)N(Cc1cccc(C(F)(F)F)c1)C(=O)CS2(=O)=O [Compound I-28]: zone 3
- O=C1CS(=O)(=O)c2cccnc2N1Cc1cccc(C(F)(F)F)c1 [Compound I-1]: zone 2
- O=C1CS(=O)(=O)c2cccnc2N1Cc1ccc(Cl)c(C(F)(F)F)c1 [Compound I-3]: zone 2
- O=C1CSc2cccnc2N1Cc1cccc(Br)c1 [II-10]: zone 3
- O=C1CSc2cccnc2N1Cc1ccc(Cl)c(C(F)(F)F)c1 [II-5]: zone 1
- O=C1CS(=O)(=O)c2cccnc2N1Cc1ccc(F)c(OC(F)(F)F)c1 [Compound I-5]: zone 1
- O=C1CSc2cccnc2N1Cc1ccc(Cl)c(S(=O)(=O)C(F)(F)F)c1 [II-8]: zone 1
- CC(C)c1nc2c(s1)SCC(=O)N2C(C)c1cccc(C(F)(F)F)c1 (stereo not shown) [II-21]: zone 3
- Cc1nc2c(s1)S(=O)(=O)CC(=O)N2Cc1cccc(C(F)(F)F)c1 [Compound I-37]: zone 2
- O=C1CSc2ncsc2N1Cc1ccc(F)c(OC(F)(F)F)c1 [II-17]: zone 1
- Cc1nc2c(s1)N(Cc1cccc(OC(F)(F)F)c1)C(=O)CS2(=O)=O [Compound I-29]: zone 3
- NC(=O)c1ccc2c(n1)N(Cc1ccc(Cl)c(C(F)(F)F)c1)C(=O)CS2 [II-3]: zone 2
- COC(=O)c1cc2c(s1)S(=O)(=O)CC(=O)N2Cc1cccc(OC(F)(F)F)c1 [Compound I-42]: zone 2
- O=C1CS(=O)(=O)c2nccnc2N1Cc1ccc(F)c(OC(F)(F)F)c1 [Compound I-23]: zone 2
- O=C1CSc2ccc(CO)nc2N1Cc1ccc(Cl)c(C(F)(F)F)c1 [II-11]: zone 1
- CC(C)c1nc2c(s1)SCC(=O)N2Cc1ccc(F)c(OC(F)(F)F)c1 [II-18]: zone 2
- O=C1CSc2cccnc2N1Cc1ccc(Cl)c(SC(F)(F)F)c1 [II-7]: zone 1
- O=C1CS(=O)(=O)c2cccnc2N1CCc1ccccc1C(F)(F)F [Compound I-6]: zone 3
- Cc1nc2c(s1)SCC(=O)N2C(C)c1cccc(C(F)(F)F)c1 (stereo not shown) [II-23]: zone 1
- C[C@@H](c1cccc(C(F)(F)F)c1)N1C(=O)CS(=O)(=O)c2nccnc21 [Compound I-22]: zone 3
- O=C1CS(=O)(=O)c2ccsc2N1Cc1ccc(F)c(OC(F)(F)F)c1 [Compound I-39]: zone 1
- COC(=O)c1cc2c(s1)S(=O)(=O)CC(=O)N2C(C)c1cccc(C(F)(F)F)c1 (stereo not shown) [Compound I-43]: zone 2
- O=C1CS(=O)(=O)c2scnc2N1Cc1ccc(F)c(OC(F)(F)F)c1 [Compound I-33]: zone 2
- O=C1CS(=O)(=O)c2ncsc2N1Cc1cccc(C(F)(F)F)c1 [Compound I-25]: zone 3
- CC(c1cccc(C(F)(F)F)c1)N1C(=O)CSc2cccnc21 (stereo not shown) [II-4]: zone 1
- O=C1CS(=O)(=O)c2cccnc2N1Cc1ccc(Cl)c(OC(F)(F)F)c1 [Compound I-12]: zone 1
- O=C1CS(=O)(=O)c2ncsc2N1Cc1ccc(F)c(OC(F)(F)F)c1 [Compound I-26]: zone 3
- O=C1CSc2cccnc2N1Cc1cccc(OC(F)(F)F)c1 [II-1]: zone 1
- Cc1nc2c(s1)N(Cc1cccc(OC(F)(F)F)c1)C(=O)CS2 [II-12]: zone 2
- CC(C)c1nc2c(s1)SCC(=O)N2Cc1cccc(OC(F)(F)F)c1 [II-20]: zone 3
- O=C1CSc2ncsc2N1Cc1cccc(OC(F)(F)F)c1 [II-13]: zone 2
- CC(c1cccc(C(F)(F)F)c1)N1C(=O)CS(=O)(=O)c2ncc(Br)cc21 (stereo not shown) [Compound I-21]: zone 2
- O=C1CS(=O)(=O)c2cc(Cl)cnc2N1Cc1ccc(Cl)c(C(F)(F)F)c1 [Compound I-10]: zone 2
- CC(c1cccc(C(F)(F)F)c1)N1C(=O)CS(=O)(=O)c2ncsc21 (stereo not shown) [Compound I-32]: zone 3
- O=C1CS(=O)(=O)c2sccc2N1Cc1ccc(F)c(OC(F)(F)F)c1 [Compound I-40]: zone 1
- O=C1CS(=O)(=O)c2cccnc2N1CCc1cccc(Cl)c1 [Compound I-16]: zone 3
- Cc1nc2c(s1)N(Cc1ccc(F)c(OC(F)(F)F)c1)C(=O)CS2(=O)=O [Compound I-27]: zone 3
